# test.target: reduced SAH hydrolase (Bos taurus, UniProt Q3MHL4)
# Construct: SAH hydrolase is purified with classical chromatographical methods to homogeneity from organs e.g. from bovine kidney; from tissue; host or cells: bovine kidney
# Sequence (Q3MHL4 2-432 limits assumed): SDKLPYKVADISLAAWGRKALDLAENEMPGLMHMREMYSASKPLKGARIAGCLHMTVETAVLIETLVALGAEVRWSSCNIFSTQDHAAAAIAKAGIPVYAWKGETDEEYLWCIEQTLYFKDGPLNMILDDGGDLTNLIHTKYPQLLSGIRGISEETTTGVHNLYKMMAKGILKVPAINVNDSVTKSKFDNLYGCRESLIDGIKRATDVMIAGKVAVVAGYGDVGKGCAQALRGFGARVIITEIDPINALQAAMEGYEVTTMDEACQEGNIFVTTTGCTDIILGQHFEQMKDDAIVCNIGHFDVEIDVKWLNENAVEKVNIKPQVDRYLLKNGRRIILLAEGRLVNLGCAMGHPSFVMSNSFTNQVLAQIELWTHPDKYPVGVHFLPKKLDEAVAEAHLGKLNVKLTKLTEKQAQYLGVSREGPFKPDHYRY
# experiment.summary: 3H-adenosine displacement using reduced SAH hydrolase
# Type: binding, bovine
parameter.measured: EC50

smiles.notation | test.target | parameter.measured | endpoint.result
Cn1c(=O)c2[nH]cnc2n(C)c1=O | reduced SAH hydrolase (Bos taurus, UniProt Q3MHL4) | EC50 | > 100 µM
